Please provide measured inhibition at 0.1 µM for the entries that follow.
# target_system: human vasopressin V1a receptor subtype (Homo sapiens)
# Construct: host or cells: CHO cells, stably transfected (pZeoSV vector for the Thibonnier cells); membranes
# Sequence (P37288 whole entry): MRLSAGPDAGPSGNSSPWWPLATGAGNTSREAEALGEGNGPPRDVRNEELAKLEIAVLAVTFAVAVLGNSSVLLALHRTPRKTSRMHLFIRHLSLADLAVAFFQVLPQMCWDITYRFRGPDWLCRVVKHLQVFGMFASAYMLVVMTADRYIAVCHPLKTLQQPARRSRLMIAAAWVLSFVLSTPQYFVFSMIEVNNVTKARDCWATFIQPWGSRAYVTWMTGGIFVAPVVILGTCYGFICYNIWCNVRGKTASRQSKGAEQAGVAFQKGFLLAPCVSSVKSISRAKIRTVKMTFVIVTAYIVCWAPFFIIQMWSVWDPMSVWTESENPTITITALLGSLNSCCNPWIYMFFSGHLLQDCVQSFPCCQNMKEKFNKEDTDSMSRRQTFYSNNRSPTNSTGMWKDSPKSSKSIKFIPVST
# procedure_details: Vasopressin binding in CHO cell membranes expressing human vasopressin V1a subtype receptors ([3H]Manning ligand)
# measurement_parameters: 100 nM, values without parentheses
# Source text: Vasopressin Binding in Chinese Hamster Ovary Cell Membranes Expressing Human Vasopressin V1a Subtype Receptors Chinese hamster ovary cells (CHO cells) stably transfected with the human vasopressin V1a subtype receptors were either obtained from Biosignal Inc., 1744 rue Williams, Montreal, Quebec, Canada or obtained from M. Thibonnier, Case Western Reserve University School of Medicine, Cleveland, Ohio. […]

Worked cases, inhibition at 0.1 µM given:
Lookup: Entry O=C1C=C(c2ccc(C(=O)N3Cc4cccn4Cc4ccccc43)cc2)CCC1 [Example 24] : reported inhibition at 0.1 µM = ?
Found: 49%

Lookup: Entry CC1(C)CCCC=C1c1ccc(C(=O)N2Cc3cccn3Cc3ccccc32)c(Cl)c1 [Example 12] : reported inhibition at 0.1 µM = ?
Found: 54%

Lookup: Entry O=C(c1ccc(C2=CCCc3ccccc32)cc1)N1Cc2cccn2Cc2ccccc21 [Example 18] : reported inhibition at 0.1 µM = ?
Found: 51%

Lookup: Entry CC1=C(c2ccc(C(=O)N3Cc4cccn4Cc4ccccc43)cc2C)CCCC1N (centres unmarked) [Example 45] : reported inhibition at 0.1 µM = ?
Found: 50%

Lookup: Entry O=C(c1ccc(C2=CC(O)CCC2)cc1)N1Cc2cccn2Cc2ccccc21 (centres unmarked) [Example 25] : reported inhibition at 0.1 µM = ?
Found: 76%

Lookup: Entry CC1(C)CCCC=C1c1ccc(C(=O)N2Cc3cccn3Cc3ccccc32)cc1 [Example 17] : reported inhibition at 0.1 µM = ?
Found: 51%

Lookup: Entry Cc1cc(C(=O)N2Cc3cccn3Cc3ccccc32)ccc1C1=CCCCC1C (centres unmarked) [Example 29] : reported inhibition at 0.1 µM = ?
Found: 27%

Lookup: Entry CC1=C(c2ccc(C(=O)N3Cc4cccn4Cc4ccccc43)c(Cl)c2)CCCC1=O [Example 13] : reported inhibition at 0.1 µM = ?
Found: 95%

Provide inhibition at 0.1 µM for all items below, preserving their order.
1. CC1(C)C=C(c2ccc(C(=O)N3Cc4cccn4Cc4ccccc43)cc2)CC(C)(C)C1 [Example 23]
2. Cc1cc(C(=O)N2Cc3cccn3Cc3ccccc32)ccc1C1=CCCCC1C(C)(C)C (centres unmarked) [Example 34]
3. O=C(c1ccc(C2=CCCCC2)cc1Cl)N1Cc2cccn2Cc2ccccc21 [Example 10]
4. CC1=C(c2ccc(C(=O)N3Cc4cccn4Cc4ccccc43)cc2)CCCC1=O [Example 26]
5. CC1=C(c2ccc(C(=O)N3Cc4cccn4Cc4ccccc43)cc2C)C(C)CCC1 (centres unmarked) [Example 33]

Found:
-10%
-5%
94%
27%
6%

---

# target_system: human oxytocin receptor (Homo sapiens, UniProt P30559)
# Construct: host or cells: CHO cells, stably transfected (pcDNA3.1 vector); membranes
# Sequence (P30559 whole entry): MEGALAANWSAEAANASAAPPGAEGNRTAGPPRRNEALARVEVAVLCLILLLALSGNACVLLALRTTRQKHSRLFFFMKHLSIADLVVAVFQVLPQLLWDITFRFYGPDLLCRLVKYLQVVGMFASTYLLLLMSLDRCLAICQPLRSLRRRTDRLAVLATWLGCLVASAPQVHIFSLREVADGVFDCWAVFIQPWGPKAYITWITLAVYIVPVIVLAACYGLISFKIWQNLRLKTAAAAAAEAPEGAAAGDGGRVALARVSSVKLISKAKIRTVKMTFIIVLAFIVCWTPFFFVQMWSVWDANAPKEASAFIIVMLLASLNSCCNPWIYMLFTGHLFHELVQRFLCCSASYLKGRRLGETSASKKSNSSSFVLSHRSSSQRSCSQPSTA
# procedure_details: Oxytocin binding in CHO cell membranes expressing human oxytocin receptors ([3H]oxytocin)
# measurement_parameters: 100 nM, values without parentheses, read-out: OT % inhibition @ 100 nM
Please provide measured inhibition at 0.1 µM for the entries that follow.
Give bare numbers, in %.

Worked cases, inhibition at 0.1 µM given:
Lookup: Entry Cc1cc(C(=O)N2Cc3cccn3Cc3ccccc32)ccc1C1=CCC2CC1C2(C)C (centres unmarked) : reported inhibition at 0.1 µM = ?
Found: 14

Lookup: Entry Cc1cc(C(=O)N2Cc3cccn3Cc3ccccc32)ccc1C1=CCCCC1C (centres unmarked) : reported inhibition at 0.1 µM = ?
Found: 81

Lookup: Entry Cc1cc(C(=O)N2Cc3cccn3Cc3ccccc32)ccc1C1=CCC2CCC1C2 (centres unmarked) : reported inhibition at 0.1 µM = ?
Found: 48

Lookup: Entry CC1=C(c2ccc(C(=O)N3Cc4cccn4Cc4ccccc43)cc2C)CCC[C@@H]1O (single isomer, unassigned) : reported inhibition at 0.1 µM = ?
Found: 96

New cases:
Lookup: Entry Cc1cc(C(=O)N2Cc3cccn3Cc3ccccc32)ccc1C1=CCCCC1(C)C : reported inhibition at 0.1 µM = ?
Found: 67

The values you see were collected from patent US7022699B2.
